- measuredOn: Fuc(a1-2)[GalNAc(a1-3)]Gal
- assayText: glycan array binding signal (z-score within array); higher = stronger binding
- assayContext: glycan notation: IUPAC condensed, linker removed
This excerpt belongs to a sample that is enriched for the strongest signals.
Let's look at some binders and their measured glycan array binding signal (z-score).
Write the value as a bare number.

binder="Flo1 (Saccharomyces cerevisiae), P32768 (protein) SGATEACLPAGQRKSGMNINFYQYSLKDSSTYSNAAYMAYGYASKTKLGSVGGQTDISIDYNIPCVSSSGTFPCPQEDSYGNWGCKGMGACSNSQGIAYWSTDLFGFYTTPTNVTLEMTGYFLPPQTGSYTFKFATVDDSAILSVGGATAFNCCAQQQPPITSTNFTIDGIKPWGGSLPPNIEGTVYMYAGYYYPMKVVYSNAVSWGTLPISVTLPDGTTVSDDFEGYVYSFDDDLSQSNCTVPDPSNY" measuredattribute="glycan array binding signal (z-score)" assayvalue=-0.514

According to the records, this binder PfulAvr4 (Pseudocercospora fuligena) (protein) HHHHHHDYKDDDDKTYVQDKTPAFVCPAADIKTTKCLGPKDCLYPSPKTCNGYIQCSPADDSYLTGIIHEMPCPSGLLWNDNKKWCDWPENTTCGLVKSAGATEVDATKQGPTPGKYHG displays glycan array binding signal (z-score) of -0.132

According to the records, this binder RbmA (Vibrio cholerae), A0A2H4NFB8 (protein) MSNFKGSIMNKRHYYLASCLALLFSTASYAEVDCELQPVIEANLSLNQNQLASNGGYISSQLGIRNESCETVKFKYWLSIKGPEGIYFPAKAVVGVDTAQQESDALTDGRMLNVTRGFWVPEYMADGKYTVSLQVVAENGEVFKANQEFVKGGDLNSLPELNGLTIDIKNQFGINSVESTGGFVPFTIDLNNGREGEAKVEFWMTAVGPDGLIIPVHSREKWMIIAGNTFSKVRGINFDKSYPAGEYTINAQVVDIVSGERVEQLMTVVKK displays glycan array binding signal (z-score) of 0.428
